subject of test: T1, RSV F subtype A, furin-cleaved ectodomain stabilized in the prefusion conformation (DS-Cav1) (Respiratory syncytial virus subtype A, UniProt P03420 26-524)
T1 construct: extracellular domain; Trimeric soluble antigen; also called Prefusion subtype A
assay: BLI, IgG on AHQ sensor, 100 nM antigen
measured quantity: Kd (pM)
Report as a plain number; the unit pM is understood.

Below: 3 binders and their reported Kd.
>>> endpoint_value("ADI-18953 (antibody, V domains shown, full-length IgG from yeast) VH: QVQLVQSGAEVKKPGSSVKVSCKASGGTFSGYAINWVRQAPGQGLEWMGGIIHIFGTVNYAPKFQGRLTITADASTGTAYMELSSLMSEDTALYYCARDAYEVWTGSYLPPFDYWGQGTLVTVSS VL: ETTLTQSPGTLSLSPGERVTLSCRASQTVTSNYLAWYQQKPGQAPRLLIYDAFTRATGVPARFSGSGSGTDFTLTISRLEPEDFAVYYCQQYGSSFLTFGGGTKVEIK")
513
>>> endpoint_value("ADI-18912 (antibody, V domains shown, full-length IgG from yeast) VH: EVQLVESGGGLVKPGGALRLSCAASGFSFRSYSMNWVRQAPGKGLEWVSSISSSSNYINYADSVKGRFSISRDNAKNSLYLQMNSLRAEDTAVYYCARDLLPVERGPAFDIWGQGTMVTVSS VL: SYELTQPPSVSGAPGQRVTISCTGSSSNIGAGYDVHWFQQLPGAAPKLLIYANSNRPSGVPDRFSGSKSGTSASLAITGLQAEDEADYYCQSYDSRLGGSVFGGGTKVTVL")
258
>>> endpoint_value("ADI-18948 (antibody, V domains shown, full-length IgG from yeast; also called Antibody Number 300; Ab # 300) VH: EVQLLESGGGVVQSGRSLRLSCVASGFTFSDSGMHWVRQAPGKGLEWVAGLFYDGSNKQYADSVKGRFTISRDNSKSTLYLQMNSLRAEDTAVYYCARAPYDIWSGYCLDYWGQGTLVTVSS VL: EIVLTQSPATLYMSPGERATLSCRASQSVNNNLAWYQQRPGQAPRLLIYGASTRATGIPARFSGSGSETEFTLTISSLQSEDFAVYHCQQYSIWPQTFGQGTKLEIK")
4550

Field Kd (entry ADI-18960 (antibody, V domains shown, full-length IgG from yeast; also called Antibody Number 311; Ab # 311) VH: QVQLQESGPGLVKPSETLSLTCSVSGGSITNVNYYWGWIRQPPGKGLEWIGSIYYNGNTYYNPSLQSRVTMSVDTSKNHFSLRLTSVTAADTAVYFCAREGPNWELLNAFDIWGQGTTVTVSS VL: DIQVTQPPSVSVAPGQTARITCGGNNIGSKNVHWYQQKPGRAPVLVVYEDTHRPSGIPERFSGSNSGNTATLTISRVEAGDEADYYCQVWDTSSDHVVFGGGTKLTVL ) reads 178
